Listed here are compounds together with their documented CC50.
experimental-details: in vitro
study-conditions: dog, CC50, MDCK cells; run with Influenza A H1N1 California/07/2009; VYR/Neutral Red
Bridge positions count the residues as written; N and C are the ends. Square brackets hold non-standard residues; d marks the D form. Peptide text beside a SMILES is read from it. R8 = C=CCCCCCC[C@@](C)(N)C(=O)O; S5 = C=CCCC[C@](C)(N)C(=O)O; Nle = CCCC[C@H](N)C(=O)O; Aib = CC(C)(N)C(=O)O

compound	CC50
CCCC[C@H](NC(C)=O)C(=O)N[C@@H](CC(=O)O)C(=O)N[C@H](C(=O)N[C@@H](CC(N)=O)C(=O)N[C@]1(C)CCCCCCC=CCCC[C@@](C)(C(=O)N[C@@H](C)C(=O)N[C@@H](C)C(=O)N[C@@H](CCC(N)=O)C(N)=O)NC(=O)[C@H](C)NC(=O)[C@H](CC(C)C)NC(=O)[C@H](Cc2ccccc2)NC(=O)[C@H](CC(C)C)NC(=O)[C@H](CC(C)C)NC(=O)[C@H]([C@@H](C)O)NC1=O)C(C)C [SP-18] (Ac-[Nle]DVN[R8]TLLFLA[S5]AAQ-NH2; staple 5-12)	> 100 µM
CCCC[C@H](NC(C)=O)C(=O)N[C@@H](CC(=O)O)C(=O)N[C@H](C(=O)N[C@@H](CC(N)=O)C(=O)N[C@@]1(C)CCCC=CCCC[C@@](C)(C(=O)N[C@@H](CC(C)C)C(=O)N[C@@H](C)C(=O)N[C@H](C(=O)NC(C)(C)C(=O)N[C@@H](C)C(=O)N[C@@H](CCC(N)=O)C(N)=O)C(C)C)NC(=O)[C@H](CC(C)C)NC(=O)[C@H](CC(C)C)NC(=O)[C@H]([C@@H](C)O)NC1=O)C(C)C [SP-6] (Ac-[Nle]DVN[S5]TLL[S5]LAV[Aib]AQ-NH2; staple 5-9)	> 100 µM
